Experiment: Cycloheximide Counterscreen for Small Molecule Inhibitors of Shiga Toxin; note: read at 38.3 µM for the half of the compounds with a filed dose; 0% is about no effect
Conditions: cell reporter, cycloheximide protein synthesis inhibition counterscreen
Among all 300,000 compounds or so, about 37,000 (12%) were called active. Cut-off read from the data, not from the text of the source: active = max response mostly above about 13% (no sharp cut-off); inactive = mostly below about 14%. Many of the other results were omitted from the sample, so actives are more common in it than they were.
Classes used: 1 for active, 0 for inactive

- compound: "CCc1ccc(-c2nc(SCC(=O)NC3CCCC3)n[nH]2)cc1"
  classification: 1
- compound: "Cc1oc(-c2ccccc2Cl)[n+]([O-])c1C"
  classification: 0
- compound: "O=C(Nc1ccccc1[N+](=O)[O-])C1C(c2ccccc2)=C1c1ccccc1"
  classification: 0
- compound: "COc1ccc(/C=C2\\SC(=S)N(CCC(=O)Nc3cccc(C(=O)O)c3)C2=O)cc1OC"
  classification: 0
- compound: "CC(=O)N1CC(=O)N(CC(=O)Nc2ccc(Br)cc2)C1=S"
  classification: 0
- compound: "CCCn1c(C(C)Nc2nc(-c3ccc(C)cc3)cs2)nc2cc(Cl)c(N3CCCCC3)cc21 (centres undefined)"
  classification: 0
- compound: "O=C(c1c(F)cccc1Cl)N1CCN(c2ccccn2)CC1"
  classification: 0
- compound: "CN(CCc1ccccn1)C(=O)c1ccc(OC2CCN(Cc3ccccn3)CC2)cc1"
  classification: 0
- compound: "O=C(O)c1ccccc1C(=O)Nc1ccccc1[N+](=O)[O-]"
  classification: 0
- compound: "COc1ccc(NC(=O)c2cc3nc(-c4ccccc4)cc(C)n3n2)cc1OC"
  classification: 0
- compound: "Cc1cc(C)cc(NC(=O)NCc2ccccn2)c1"
  classification: 0
- compound: "O=C(CNC(=O)c1ccc(Br)o1)Nc1ccccc1"
  classification: 0
- compound: "COc1ccc(-c2nnc3n2CCCCC3)cc1"
  classification: 0
- compound: "COc1cccc(OC)c1C(=O)NC(=S)NCc1ccco1"
  classification: 0
- compound: "COc1cccc(S(=O)(=O)NCc2ccc(C(=O)NCc3ccccn3)cc2)c1"
  classification: 0
- compound: "CNC(=O)c1ccc(NC(=O)c2cccc(C(F)(F)F)c2)cc1"
  classification: 0
- compound: "Cc1cccc(CN2CCC(CNC(=O)Nc3ccc(F)c(Cl)c3)CC2)c1"
  classification: 0
- compound: "Nc1ccc(S(=O)(=O)Nc2nccc(/C=C/c3ccc(Br)s3)n2)cc1"
  classification: 0
- compound: "COCCOC1CCN(C(=O)c2ccc(OC)c(OC3CCN(C(C)C)CC3)c2)CC1"
  classification: 0
- compound: "O=C(O)c1ccc(/C=C2\\SC(=S)N(NC(=O)c3ccc(Br)cc3)C2=O)cc1"
  classification: 0
- compound: "COCCCN1C(=O)C(=O)/C(=C(/O)c2ccc(S(=O)(=O)N3CCOCC3)cc2)C1c1ccc(F)cc1 (centres undefined)"
  classification: 0
- compound: "Cc1cccc(NC(=S)Nc2ccc(Br)cc2)c1"
  classification: 0
- compound: "CCNS(=O)(=O)c1ccc(CCC(=O)N2CCN(c3cc(Cl)ccc3C)CC2)cc1"
  classification: 0
- compound: "CC1(C)CC(CCC(=O)Nc2ccccc2Cl)C(=O)O1 (centres undefined)"
  classification: 0
- compound: "Cc1nc(C)c(C(=O)Nc2ccc(C)c(F)c2)o1"
  classification: 0
- compound: "CCOC(=O)N1CCN(C(=O)C2CCN(S(=O)(=O)c3cc(Cl)ccc3OCC)CC2)CC1"
  classification: 0
- compound: "Cn1cc(CNC(=O)c2ccc(OC3CCN(Cc4ccccn4)CC3)cc2)cn1"
  classification: 0
- compound: "O=C(Nc1ccccc1F)c1ccccc1-c1ccc(C(F)(F)F)cc1"
  classification: 0
- compound: "COc1cc(Br)c(-c2sc(Nc3ccccc3)n[n+]2-c2ccccc2)cc1OC"
  classification: 0
- compound: "Cc1cccc(NC(=S)NC23CN4CN(CN(C4)C2)C3)c1"
  classification: 0
- compound: "Cc1csc(NC(=O)Nc2ccccc2[N+](=O)[O-])n1"
  classification: 1
- compound: "CCOc1ccc(N/C(N)=N/c2nc(C)c(C)c(=O)[nH]2)cc1"
  classification: 0
- compound: "COC(=O)Cc1ccc(NC(=S)NCc2ccco2)cc1"
  classification: 0
- compound: "C/C(=N/Nc1ccc(Cl)cc1)c1cnnc(-c2ccccc2)n1"
  classification: 0
- compound: "C=CCCN(C(Cc1ccccc1)C(=O)OC)S(=O)(=O)c1cc(Br)ccc1Br (centres undefined)"
  classification: 0
- compound: "Cc1c(NC(=O)Nc2ccccc2)cccc1[N+](=O)[O-]"
  classification: 0
- compound: "COc1cccc(CNC(=O)C2CCCN(S(=O)(=O)N3CC(C)CC(C)C3)C2)c1 (centres undefined)"
  classification: 0
- compound: "O=C(NCc1ccccn1)Nc1ccc(F)cc1"
  classification: 0
- compound: "O=C(Nc1ccc(S(=O)(=O)N2CCCCC2)cc1)C1CC(=O)N(c2ccc(F)cc2)C1 (centres undefined)"
  classification: 0
- compound: "Cc1ccc(-c2noc(CSc3nnnn3-c3ccccc3)n2)cc1"
  classification: 1
- compound: "CCOC(=O)/C(=N\\Nc1ccccc1[N+](=O)[O-])c1csc(Nc2ccccc2)n1"
  classification: 0
- compound: "CCN1CCC2(CCN(Cc3cn[nH]c3-c3ccc(OC)c(F)c3)C2)C1 (centres undefined)"
  classification: 0
- compound: "Cc1cccc(NC(=O)/C(=C\\c2ccco2)NC(=O)c2ccccc2)c1"
  classification: 0
- compound: "COc1cccc(NC(=S)N(Cc2ccc(C)cc2)Cc2ccccn2)c1"
  classification: 0
